FYI, the data here is from patent US20050282743A1.

What Classification was measured for each of the following?
- TESTED_SYSTEM: T1, GST-NeDLG PDZ domain 2 (Rattus norvegicus (Rat)), Q62936
- T1 chain: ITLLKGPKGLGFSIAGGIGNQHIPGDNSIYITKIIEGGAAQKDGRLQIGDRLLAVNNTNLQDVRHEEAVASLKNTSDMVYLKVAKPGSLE
- EXPERIMENT_DESCRIPTION: G' assay; note: key of the grades not given here
One number for each entry, in A450 class.

# BINDER, MEASUREMENT_TYPE, OBS_VALUE
rows = [
    ("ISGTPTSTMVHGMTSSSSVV (modifications not checked) [Clasp-2]", "Classification", 1),
]

Please give Classification, item by item, for the list that follows.
1. ILNSIQVMRAQMNQIQSVEV (modifications not checked) [ephrin B2]
2. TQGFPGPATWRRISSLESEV (modifications not checked) [NMDA Glutamate Receptor 2C (cysteine-free)]
3. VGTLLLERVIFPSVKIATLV (modifications not checked) [AdenoE4 typ9]
4. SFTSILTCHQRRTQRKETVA (modifications not checked) [GluR5-2 (rat)]
5. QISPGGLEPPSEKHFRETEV (modifications not checked) [TAX]

1: 2; 2: 5; 3: 5; 4: 1; 5: 5
